Data origin, for the record: PubChem BioAssay (NCI)

# Tested on: HCT-15 colon
# Assay info: NCI tumour cell line growth inhibition, 48 h
Measurement label: TGI (µM)
Give bare numbers, in µM.

Molecule	TGI (µM)
CC[C@@H](c1ccc(O)c(O)c1)[C@@H](CC)c1ccc(O)c(O)c1	9.41
CC(C)=C[C@H]1C[C@H](C)[C@H]2CC[C@H](C)c3c2c1c(C)c1ncoc31	34.8
O=[N+]([O-])c1cc([N+](=O)[O-])c(C(F)(F)F)cc1NN=C(c1ccc(O)cc1)c1ccc(O)cc1	11.7

Here is another molecule to look at.
[ask] Give recorded TGI. "Cc1ccc(-c2nc(N3CCNCC3)c3oc(-c4ccc(C)cc4)nc3n2)cc1"
[reply] 3.28
